The measured values listed here are drawn from the supplement of paper PMC11451515.

System: NOMO1
Assay: cell viability relative to DMSO control; higher = less cytotoxic
Conditions: RPMI 5 mM glucose + 10% FBS; 48 h; 0.00234 µM
One threshold, 90%, splits the recorded cell viability values: lower ones are True, equal or higher ones are False.

compound: C/C(=C\c1csc(C)n1)[C@@H]1C[C@@H]2O[C@]2(C)CCC[C@H](C)[C@H](O)[C@@H](C)C(=O)C(C)(C)[C@@H](O)CC(=O)O1
qualitative label: True

compound: COc1ccc(CC2c3cc(OC)c(OC)cc3CC[N+]2(C)CCC(=O)OCCCCCOC(=O)CC[N+]2(C)CCc3cc(OC)c(OC)cc3C2Cc2ccc(OC)c(OC)c2)cc1OC (stereo unspecified)
qualitative label: True

compound: Cc1ccc(NC(=O)c2cccc(N(C)C)c2)cc1NC(=O)c1ccc(O)cc1
qualitative label: False

compound: COCCCOc1ccnc(C[S+]([O-])c2nc3ccccc3[nH]2)c1C (stereo unspecified)
qualitative label: False

Below: the item to evaluate.
For `CN(C)/[N+]([O-])=N/Oc1cc(ON[N+](=O)N2CCN(C(=O)c3cc(Cc4n[nH]c(=O)c5ccccc45)ccc3F)CC2)c([N+](=O)[O-])cc1[N+](=O)[O-]` , is the recorded cell viability below the cut-off of 90%?
False
